molecular target: T1, recombinant human IL-6 (human, UniProt P05231 30-212); assay: SPR (Biacore), supernatant IgG on Protein A, 25 C
T1 construct: Flowed in solution over the captured antibodies
T1 sequence (P05231 30-212 limits assumed): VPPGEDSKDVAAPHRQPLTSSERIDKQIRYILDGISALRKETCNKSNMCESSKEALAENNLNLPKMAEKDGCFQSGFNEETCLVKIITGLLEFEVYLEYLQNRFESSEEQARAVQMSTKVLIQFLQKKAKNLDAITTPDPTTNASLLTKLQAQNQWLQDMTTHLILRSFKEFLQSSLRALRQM
Kd reference
Supply the numeric figure in nM, leaving out any unit text.

Known results for binders:
{"BINDER": "anti-IL-6 antibody, heavy chain L100Q, light chain WT (antibody, IgG1, V domains shown, Full IgG1 tested; V domains derived as in m2) VH: EVQLVESGGGLVQPGGSLRLSCAASGFTFSPFAMSWVRQAPGKGLEWVAKISPGGSWTYYSDTVTGRFTFSLDTSKSTAYLQMNSLRAEDTAVYYCARQQWGYYALDIWGQGTLVTVSS VL: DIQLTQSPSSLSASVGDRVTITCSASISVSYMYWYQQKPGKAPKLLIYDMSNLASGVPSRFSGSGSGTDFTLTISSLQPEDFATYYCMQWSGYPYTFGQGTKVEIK", "VALUE UNIT": "nM", "Kd": 0.384}
{"BINDER": "anti-IL-6 antibody, heavy chain WT, light chain S26G (antibody, IgG1, V domains shown, Full IgG1 tested; V domains derived as in m2) VH: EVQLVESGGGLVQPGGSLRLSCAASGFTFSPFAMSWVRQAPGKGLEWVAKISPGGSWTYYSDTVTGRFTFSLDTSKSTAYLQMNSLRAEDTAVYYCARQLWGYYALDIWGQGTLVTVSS VL: DIQLTQSPSSLSASVGDRVTITCSAGISVSYMYWYQQKPGKAPKLLIYDMSNLASGVPSRFSGSGSGTDFTLTISSLQPEDFATYYCMQWSGYPYTFGQGTKVEIK", "VALUE UNIT": "nM", "Kd": 0.281}

Alright, here's another binder for you.
Item anti-IL-6 antibody, heavy chain A49T, light chain WT (antibody, IgG1, V domains shown, Full IgG1 tested; V domains derived as in m2) VH: EVQLVESGGGLVQPGGSLRLSCAASGFTFSPFAMSWVRQAPGKGLEWVTKISPGGSWTYYSDTVTGRFTFSLDTSKSTAYLQMNSLRAEDTAVYYCARQLWGYYALDIWGQGTLVTVSS VL: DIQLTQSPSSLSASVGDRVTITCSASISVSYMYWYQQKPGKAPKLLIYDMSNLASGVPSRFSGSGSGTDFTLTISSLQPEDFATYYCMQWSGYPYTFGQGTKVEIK has what recorded Kd? 0.337
